Here, each record is paired with measured Plant response rating data.
Tested on: barley, winter (winter barley, Hordeum vulgare)
experiment: Test D pre-/postemergence controlled growth environment herbicide test
Format: in vivo
experimentalSetup: Postemergence, 62 g ai/ha, scale 0 to 100
Give a plain numeric answer without units written out.

Cc1cc(=O)n(-c2ccc(F)cc2)nc1Cc1ccnc(C(F)(F)F)c1 [Compound 1] = 0
Cc1cc(=O)n(-c2ccc(C(F)(F)F)cc2)nc1Cc1ccnc(C(F)(F)F)c1 [Compound 2] = 15
Cc1cc(=O)n(-c2ccc(F)cc2)nc1Oc1ccnc(C(F)(F)F)c1 [Compound 14] = 20

Let's switch to this molecule now.
Query: State its Plant response rating: COc1cc(=O)n(-c2ccc(F)cc2)nc1Cc1ccnc(C(F)(F)F)c1 [Compound 17]
Response: 15
